- Protocol description: blockers of DNA damage checkpoint Chk1 activation – imaging, HeLa, hydroxyurea, phospho-Chk1 nuclear intensity, primary screen (AID 1187); note: test concentration not given here
- Condition info: hydroxyurea-induced phospho-Chk1 immunofluorescence imaging, higher = more signal
Quantity kind: z-score
No unit in the answer, only the number.

C[C@H]1ON(c2ccccc2)[C@@H](c2ccccc2)[C@@H]1C(=O)N1C(=O)OC[C@@H]1c1ccccc1
-0.154
CC[C@@H]1[C@@H]2C3C(=O)N(CC)C(=O)C3CC(=O)[C@@H]2[C@H](c2ccc(C)cc2)N1S(=O)(=O)c1ccc(C)cc1 (some centres undefined)
-1.33
O=C1C2C=CC(C(O)c3cccc4ccccc34)N(Nc3ccccc3)C2C(=O)N1c1ccccc1 (centres undefined)
-0.294
COCC1=C([C@H](O)CCc2ccccc2)[C@H](CO)[C@@H]2C(=O)N(C)C(=O)[C@@H]2C1
-0.523

[ask] Look at this compound and give its reported z-score. COCCCNC(=O)[C@@]1(C)c2ccccc2C(=O)N(c2ccc(C)cn2)[C@H]1c1ccc(CO)cc1
[reply] 0.554

[ask] Look at this compound and give its reported z-score. CC(C)C(CO)N1C(=O)[C@@H]2[C@H]3C(=O)OCC=C[C@H]3OC23C=CCN(CCN2CCOCC2)C(=O)[C@@H]13 (some centres undefined)
[reply] 0.436

[ask] Look at this compound and give its reported z-score. COCCOC(=O)N1C(=O)[C@@]2(c3cc(C#CCCO)ccc31)[C@H](C(=O)NC[C@H](O)c1ccccc1)[C@H]1C(=O)O[C@H](c3ccccc3)[C@H](c3ccccc3)N1[C@@H]2c1ccccc1OCCO
[reply] 0.431

[ask] Look at this compound and give its reported z-score. C=C(CCCC)/C(=C/C[C@@H](OC(=O)c1ccncc1)c1ccccc1OCCO)c1cc(C(=O)OC)ccc1OC
[reply] 0.185

[ask] Look at this compound and give its reported z-score. CC(=O)NCCCC[C@@H]1NC(=O)[C@H]2C[C@@H](C(=O)NCCCCCN)[C@@H](c3cccc(OCCO)c3)N2C1=O
[reply] -0.661

[ask] Look at this compound and give its reported z-score. C[N+](C)(C)CCCCCCNC(=O)[C@H]1C[C@H]2C(=O)N3CCC[C@H]3C(=O)N2[C@H]1c1cccc(OCCO)c1
[reply] 0.182

[ask] Look at this compound and give its reported z-score. COC(=O)[C@@]1(Cc2ccc(F)cc2)[C@H]2c3cc(C(=O)N(C)C)n(Cc4ccc(C)c(F)c4F)c3C[C@H]2CN1C(=O)c1ccccc1
[reply] -0.193

[ask] Look at this compound and give its reported z-score. C=CCNC(=O)[C@H]1[C@@H]2C(=O)O[C@@H](c3ccccc3)[C@@H](c3ccccc3)N2[C@@H](c2ccc(O)cc2)[C@]12C(=O)N(C(=O)OCCOC)c1ccc(C#CC3(O)CCCCCC3)cc12
[reply] 0.382

[ask] Look at this compound and give its reported z-score. CCC[C@@H]1C[C@@]1(CCC)[C@@H](NC(=O)c1cccs1)c1ccc(Cl)cc1
[reply] -0.143

[ask] Look at this compound and give its reported z-score. COc1cccc(C)c1NC(=O)O[C@H]1[C@H](OC(=O)Nc2ccccc2)[C@H](OC(=O)Nc2ccccc2)[C@@H](OC)O[C@@H]1CO
[reply] 0.136

---

- System tested: Fibroblast growth factor 10 (Homo sapiens)
- Protocol description: compounds binding fibroblast growth factor 10 – biochemical, small-molecule microarray, 635 nm fluorescence, primary screen (AID 1102)
- Condition info: FGF10 binding, fluorescence 635 nm, higher = more signal
Quantity kind: composite z-score

Solved cases below.
COc1ccc(CCNC(=O)[C@@H]2c3ccccc3C(=O)N(Cc3ccccc3)[C@H]2c2ccc(CO)cc2)cc1
0.847
COC(=O)C(CC#Cc1ccc2c(c1)[C@]1(C(=O)N2)[C@H](c2ccc(O)cc2)N2[C@H](c3ccccc3)[C@H](c3ccccc3)OC(=O)[C@H]2[C@@H]1C(=O)O)C(=O)OC
0.159
CN1C(=O)C2C=CC(C(O)C3CCCCC3)N(N(c3ccccc3)c3ccccc3)C2C1=O (stereo unspecified)
0.189
CC(C)c1ccc(NN2C(C(O)c3cccs3)C=CC3C(=O)N(c4ccccc4)C(=O)C32)cc1 (stereo unspecified)
0.461
C=CCOC(=O)[C@@H]1[C@H]2C(=O)O[C@H](c3ccccc3)[C@H](c3ccccc3)N2[C@H](c2ccc(OCCOC(=O)[C@@H]3C[C@@H]4C(=O)N5CCC[C@H]5C(=O)N4[C@@H]3c3cccc(OCCO)c3)cc2)[C@@]12C(=O)Nc1ccc(I)cc12
1.18
O=C(O)[C@]1(CCS(=O)(=O)c2ccccc2)N=C(c2ccc(OCCCO)cc2)O[C@@H]1c1ccccc1
0.216
COc1cc(C(O)C2C=CC3C(=O)N(C)C(=O)C3N2NC(=O)OC(C)(C)C)cc(OC)c1OC (stereo unspecified)
0.447
COc1ccc(CCNC(=O)[C@@H]2c3ccccc3C(=O)N(Cc3ccccc3C(F)(F)F)[C@H]2c2ccc(CO)cc2)cc1
0.176
COCCOC(=O)N1C(=O)[C@@]2(c3cc(C#CC4(O)CCCCCC4)ccc31)[C@H](C(=O)N1CCN(c3ncccn3)CC1)[C@H]1C(=O)O[C@H](c3ccccc3)[C@H](c3ccccc3)N1[C@@H]2c1ccc(O)cc1
0.45
CCOC(=O)C1=CCC(c2cccc(Cl)c2)O1 (stereo unspecified)
0.235

Next compound, please.
[ask] Look at this compound and give its reported composite z-score. [N-]=[N+]=NCc1ccccc1[C@H]1OC(c2ccc(OCCCO)cc2)=N[C@@]1(Cc1ccccc1)C(N)=O
[reply] 0.923
